Property: pIC50; scope: individual molecules
# System: BEAS-2B
# assay_protocol: Antiproliferation assay
# Format: cell-based
# test_settings: Homo sapiens, 24 h, read-out: IC50 = mean ± SD, BEAS-2B
// scale note: pIC50 = -log10(conc_M); give the bare number

Query: Using the record for CCCc1ccc(S(=O)(=O)Nc2ccc(CCCC(=O)O[C@H]3c4cc5c(cc4[C@@H](c4cc(OC)c(OC)c(OC)c4)[C@H]4C(=O)OC[C@@H]43)OCO5)cc2)cc1 , report its pIC50.
Reply: 4.13

Query: # repeat for COc1cc([C@@H]2c3cc4c(cc3[C@@H](O[C@@H]3O[C@@H]5CO[C@@H](C)O[C@H]5[C@H](O)[C@H]3O)[C@H]3COC(=O)[C@H]23)OCO4)cc(OC)c1O [Etoposide, etoposide, reference compound]
Reply: 4.17

Recorded values, source paper PMC10896134.
